FYI, the data here is from patent US20190144375A1.

Biological target: GST-tagged ROR gamma ligand binding domain (LBD) (Homo sapiens)
Construct: purchased Invitrogen
Sequence (P51449 269-508 limits assumed): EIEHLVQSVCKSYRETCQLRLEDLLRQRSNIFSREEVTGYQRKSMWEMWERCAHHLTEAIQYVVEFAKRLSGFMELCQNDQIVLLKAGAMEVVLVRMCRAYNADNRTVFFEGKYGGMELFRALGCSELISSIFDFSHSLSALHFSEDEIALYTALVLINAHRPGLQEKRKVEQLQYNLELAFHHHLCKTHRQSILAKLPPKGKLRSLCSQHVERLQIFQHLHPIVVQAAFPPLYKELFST
Assay: TR-FRET assay for ROR gamma (LanthaScreen, Fluorescein-D22 co-activator peptide recruitment)
Type: biochemical
Details: 10 μM compound; TR-FRET ratio 520/495
Cut-off 90% on inhibition at 10 µM, inclusive. At or above means t; below means f.

>>> label_class("Cc1cc(C)cc(N(C)C(=O)c2ccc(NC(=O)Cc3ccc(C(F)(F)[C@@H](C)O)cc3)cc2)c1 [Example 36]")
"t"
>>> label_class("CC(O)C(F)(F)c1ccc(CC(=O)Nc2ccc(C(=O)N(C)c3cc(C4CC4)ccc3Cl)cc2)cc1 (stereo not drawn) [Example 40]")
"t"

[in] hey, is inhibition at 10 µM for this one >= 90%? CC(O)C(F)(F)c1ccc(CC(=O)Nc2ccc(C(=O)N(C)c3cc(Cl)ccc3Cl)cc2)cc1 (stereo not drawn) [Example 5]
[out] t

[in] hey, is inhibition at 10 µM for this one >= 90%? Cc1cc(-c2ccccc2F)cc(N(C)C(=O)c2ccc(NC(=O)Cc3ccc(C(F)(F)C(C)O)cc3)cc2)c1 (stereo not drawn) [Example 12]
[out] t
